# protocol details: Pantoprazole (PPI) effect on RBN-3143 pharmacokinetics, cross-over
# Assay type: in vivo, human
# condition: human, plasma, po, 500 mg, single 500 mg oral dose, fasted without pantoprazole; read-out: AUCinf, geometric mean (Geo CV%)
observed property: AUC(0-inf) (ng·h/mL)

1) CC(=O)N1CCC(COc2cc(F)c3c(=O)[nH]c(CSC4CCOCC4)nc3c2)CC1    13300

---

# protocol details: Single ascending dose (SAD) pharmacokinetics in healthy volunteers
# Format: in vivo, human
# condition: human, plasma, po, 1000 mg, single oral dose 1000 mg, plasma; read-out: Cmax, geometric mean (Geo CV%)
# Procedure: Analytes were separated by HPLC on a Waters Atlantis T3 analytical column using a gradient mobile phase (mobile phase A: 10% acetonitrile, 90% water, 10 mM ammonium acetate, 0.3% formic acid; mobile phase B: 90% acetonitrile, 10% water, 10 mM ammonium acetate, 0.3% formic acid) run at 0.4 mL/min with initial mobile phase B concentration of 30%.
observed property: Cmax

1. CC(=O)N1CCC(COc2cc(F)c3c(=O)[nH]c(CSC4CCOCC4)nc3c2)CC1    1460 ng/mL
